Recorded GI50 by entry
# Tested on: RPMI-8226
# Experimental details: NCI tumour cell line growth inhibition, 48 h
Activity calls are given as the source filed them. Rule as the data show it: active = GI50 up to about 1.1 µM and inactive = higher.

>  <Compound>
COC(=O)CCC(=O)C(C#N)c1ccc(Cl)cc1Cl (stereo unspecified)

>  <GI50>
> 100 µM (inactive)

$$$$
>  <Compound>
CC1=NN(c2cccc(Cl)c2)C2(SCC(=O)N2c2nc3ccccc3s2)/C1=C\c1cccs1 (stereo unspecified)

>  <GI50>
17.7 µM (inactive)

$$$$
>  <Compound>
Cc1ccc(S(=O)(=O)NC(=O)NNc2ccc(F)cc2)cc1

>  <GI50>
> 27 µM (inactive)

$$$$
>  <Compound>
Nc1nncc2[nH]nnc12

>  <GI50>
> 100 µM (inactive)

$$$$
>  <Compound>
N=C(N)N/N=C/c1c(-c2ccc(N)cc2)nc2sccn12

>  <GI50>
30.8 µM (inactive)

$$$$
>  <Compound>
O=Cc1ccc(-c2nccc3c2[nH]c2ccccc23)o1

>  <GI50>
> 81.8 µM (inactive)

$$$$

----------
Recorded GI50 by entry
# System: SF-539
# Experimental details: NCI tumour cell line growth inhibition, 48 h
The source made the active and inactive calls. Rule as the data show it: active = GI50 up to about 1.1 µM and inactive = higher.

>  <Molecule>
O=C1CSC(c2ccccc2O)N1c1ccc(-n2c(-c3ccccc3)nc3ccccc3c2=O)cc1 (stereo not given)

>  <GI50>
16.6 µM (inactive)

$$$$
>  <Molecule>
CCN(CC)CCC1CCCCN1CC(=O)N1c2ccccc2NC(=O)c2ccccc21 (stereo not given)

>  <GI50>
> 100 µM (inactive)

$$$$
>  <Molecule>
O=c1oc2ccc3ccccc3c2cc1-c1nc2ccccc2s1

>  <GI50>
> 100 µM (inactive)

$$$$
>  <Molecule>
CSCCCNC(=O)c1csc(-c2csc(CCNC(=O)CNC(=O)CNC(=O)CNC(=O)OC(C)(C)C)n2)n1

>  <GI50>
> 100 µM (inactive)

$$$$
>  <Molecule>
CCOC(=O)Cn1sc2ncc([N+](=O)[O-])cc2c1=O

>  <GI50>
19.5 µM (inactive)

$$$$

----------
# Test system: OVCAR-3
# Experimental details: NCI tumour cell line growth inhibition, 48 h
Active and inactive are the calls of the source. No stated cut-off is given here; in the data, active = GI50 up to about 1.1 µM and inactive = higher.
Labels: 1 = active, -1 = inactive

>  <Molecule>
NC(=O)c1cc2ccccc2o/c1=N/c1ccccc1

>  <Target or test system>
OVCAR-3

>  <Answer label>
-1

$$$$
>  <Molecule>
CC1S/C(=N/c2nnc(-c3ccccc3)o2)NC1=O (centres undefined)

>  <Target or test system>
OVCAR-3

>  <Answer label>
-1

$$$$
>  <Molecule>
N/C(=N\O)N/N=C/c1ncccc1O

>  <Target or test system>
OVCAR-3

>  <Answer label>
-1

$$$$
>  <Molecule>
O=C(O)CN(CC(=O)O)Cc1cc2c(cc1O)Oc1cc(O)c(CN(CC(=O)O)CC(=O)O)cc1C21OC(=O)c2ccccc21

>  <Target or test system>
OVCAR-3

>  <Answer label>
-1

$$$$
>  <Molecule>
CN(C)CCn1c(=O)c2ccc(NCCNCCO)c3c(=O)c4ccccc4n(c1=O)c23

>  <Target or test system>
OVCAR-3

>  <Answer label>
1

$$$$
>  <Molecule>
CC(=O)OCCOCn1cc(C=O)c2ccccc21

>  <Target or test system>
OVCAR-3

>  <Answer label>
-1

$$$$
>  <Molecule>
O=C(O)CC1CC=C[C@H]2c3cc4c(cc3C(=O)NC12)OCO4 (some centres undefined)

>  <Target or test system>
OVCAR-3

>  <Answer label>
-1

$$$$
>  <Molecule>
Nc1nc(N)c2nc(CN(C=O)c3ccc(C(=O)O)cc3)cnc2n1

>  <Target or test system>
OVCAR-3

>  <Answer label>
-1

$$$$
>  <Molecule>
C=C(C)[C@@H]1CC[C@]2(C(=O)O)CC[C@]3(C)[C@H](CC[C@@H]4[C@@]5(C)CC[C@H](O)C(C)(C)[C@@H]5CC[C@]43C)[C@@H]12

>  <Target or test system>
OVCAR-3

>  <Answer label>
-1

$$$$
